# tested_system: human adenosine A2A receptor (Homo sapiens, UniProt P29274)
# Construct: expressed in transfected cells; host or cells: CHO cells, semliki forest virus expression system; washed membranes
# Sequence (P29274 whole entry): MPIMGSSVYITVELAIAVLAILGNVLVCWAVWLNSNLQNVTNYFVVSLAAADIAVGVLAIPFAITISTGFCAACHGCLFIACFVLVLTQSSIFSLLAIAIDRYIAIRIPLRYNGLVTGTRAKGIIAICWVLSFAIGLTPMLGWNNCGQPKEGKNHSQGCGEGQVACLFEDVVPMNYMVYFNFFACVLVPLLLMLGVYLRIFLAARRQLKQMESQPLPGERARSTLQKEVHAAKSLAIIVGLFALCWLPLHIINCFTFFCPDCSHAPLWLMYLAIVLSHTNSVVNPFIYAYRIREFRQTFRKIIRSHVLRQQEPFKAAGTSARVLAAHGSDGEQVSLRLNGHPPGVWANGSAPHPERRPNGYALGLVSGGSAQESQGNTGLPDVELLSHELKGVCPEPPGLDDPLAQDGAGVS
# assay_remarks: [3H]-SCH-58261 binding assay, human adenosine A2A receptor (CHO cell membranes, SPA)
# conditions: [3H]-SCH-58261 displacement; list of examples 10-108; read-out: hA2a Ki
readout_name: Ki (µM)

The following compounds have reported results that may help.
[
  {
    "compound": "COC[C@@H]1CCCN1C(=O)c1cc(N)c2nc(-c3ccccc3)nn2c1",
    "Ki [µM]": 0.196
  },
  {
    "compound": "Nc1cc(C(=O)N2CCCC2)cn2nc(-c3nccs3)nc12",
    "Ki [µM]": 0.564
  }
]

(I) Cc1ccc(-c2nc3c(N)cc(C(=O)N4CC(C)OC(C)C4)cn3n2)o1 (stereo not shown)
(II) CCCCN(C)C(=O)c1cc(N)c2nc(-c3ccccc3)nn2c1
Query block: Which record would sort first by descending Ki, I or II ? Lab note: record the label of whichever item you select.
Result block: II
(II: 0.484 µM, I: 0.249 µM)
